Study System: EGFR (form used in the assay not stated) (human, UniProt P00533 25-645, limits assumed)
Protocol Description: ELISA, NEM conjugate, 500 nM
So I've got a bunch of binders here, and I need their binding relative to P54AR4-83v2 parent values.
A number alone suffices; assume ratio.

Q: # get_value(readout='binding relative to P54AR4-83v2 parent', item= P54AR4-83v2 Y28C, NEM conjugate (designed binder, not shown: small tags and cut ends, N-ethyl maleimide (NEM) on Cys 28) LPAPKNLVVSEVTEDSARLSWDDPWAFCESFLIQYQESEKVGEAIVLTVPGSERSYDLTGLKPGTEYTVSIYGVHNVYKDTNMRGLPLSAIFTT )
A: 0.09

Q: # get_value(readout='binding relative to P54AR4-83v2 parent', item= P54AR4-83v2 L7C, NEM conjugate (designed binder, not shown: small tags and cut ends, N-ethyl maleimide (NEM) on Cys 7) LPAPKNCVVSEVTEDSARLSWDDPWAFYESFLIQYQESEKVGEAIVLTVPGSERSYDLTGLKPGTEYTVSIYGVHNVYKDTNMRGLPLSAIFTT )
A: 0.9

Q: # get_value(readout='binding relative to P54AR4-83v2 parent', item= P54AR4-83v2 S52C, NEM conjugate (designed binder, not shown: small tags and cut ends, N-ethyl maleimide (NEM) on Cys 52) LPAPKNLVVSEVTEDSARLSWDDPWAFYESFLIQYQESEKVGEAIVLTVPGCERSYDLTGLKPGTEYTVSIYGVHNVYKDTNMRGLPLSAIFTT )
A: 0.93

Q: # get_value(readout='binding relative to P54AR4-83v2 parent', item= P54AR4-83v2 V8C, NEM conjugate (designed binder, not shown: small tags and cut ends, N-ethyl maleimide (NEM) on Cys 8) LPAPKNLCVSEVTEDSARLSWDDPWAFYESFLIQYQESEKVGEAIVLTVPGSERSYDLTGLKPGTEYTVSIYGVHNVYKDTNMRGLPLSAIFTT )
A: 0.9
